B1: TPR t1 (parent)
chain: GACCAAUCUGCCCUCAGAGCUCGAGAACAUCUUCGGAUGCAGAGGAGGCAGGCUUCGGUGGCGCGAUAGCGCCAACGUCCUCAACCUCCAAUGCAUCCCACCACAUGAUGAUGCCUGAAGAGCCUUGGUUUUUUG

- Variants of: B1
- Test: polymerase ribozyme fitness, log enrichment relative to wild type (log ratio); higher = more active; in vitro selection for triplet polymerase activity
This section presents variants with their documented polymerase ribozyme fitness (log ratio) values.

Record excerpt, results attached:
# Variant string, Val
records = [
    ("C28U G45C", -3.26),
    ("C79G C85G", -3.02),
    ("A2G C12U C89G", -0.965),
]

Can you look up the measured polymerase ribozyme fitness (log ratio) of U14G C20U C22G G23C U33C U38G C62U U112C A118G G127A for me?
-6.3

Which polymerase ribozyme fitness (log ratio) value belongs to A83U G107A ?
-5.83

Look up polymerase ribozyme fitness (log ratio) for this variant: A16U C72G
-1.5

Value lookup for polymerase ribozyme fitness (log ratio); key = C94G C123A C124A
1.47
